Biological target: POU2 (OCT2 POU domain) (human, UniProt P09086 175-386)
Sequence: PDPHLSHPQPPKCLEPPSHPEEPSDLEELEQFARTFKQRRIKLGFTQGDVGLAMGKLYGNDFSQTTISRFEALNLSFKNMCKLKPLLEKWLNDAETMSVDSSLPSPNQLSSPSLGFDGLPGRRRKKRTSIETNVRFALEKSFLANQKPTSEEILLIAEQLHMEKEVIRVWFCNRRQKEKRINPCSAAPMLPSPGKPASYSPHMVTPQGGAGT
Assay: EMSA-SELEX-seq; no BOB1; 20 mM Tris-HCl pH 7.6, 140 mM NaCl, 10% glycerol, 0.5 mM EDTA, 0.05% Triton X-100, 0.1 mg/mL BSA, 0.1 mg/mL poly(dI-dC), 5 mM DTT, room temperature, 20 min; high values mean tight binding
Conditions: protein: recombinant; dsDNA, one strand shown
ASSAY_METRIC: binding signal

Request: Quick check: binding signal on POU2 (OCT2 POU domain) (human, UniProt P09086 175-386), item AGCAAAAG ?
Result: 0.0322 % of ANNNNAAN 8-mers

Request: Next: ATGCAAAA
Result: 1.17 % of ANNNNAAN 8-mers

Request: Check ATTCTAAC too.
Result: 0.0495 % of ANNNNAAN 8-mers

Request: Quick one: AGAATAAC
Result: 0.0673 % of ANNNNAAN 8-mers

Request: Follow-up entry: AATCGAAC
Result: 0.0334 % of ANNNNAAN 8-mers

Request: Queued: ATGGGAAA
Result: 0.1 % of ANNNNAAN 8-mers

Request: Now consider ACGGAAAT and answer again.
Result: 0.099 % of ANNNNAAN 8-mers

Request: Next sequence: ATTCAAAT
Result: 1.29 % of ANNNNAAN 8-mers

Request: Would you mind doing ATCTCAAT as well?
Result: 0.0846 % of ANNNNAAN 8-mers

Request: Again, but for ACCATAAC
Result: 0.0213 % of ANNNNAAN 8-mers

Request: Please answer likewise for ACAAAAAC
Result: 0.0397 % of ANNNNAAN 8-mers

Request: Quick one: AAGGGAAA
Result: 0.146 % of ANNNNAAN 8-mers

Request: Now the same for AACCAAAC
Result: 0.0236 % of ANNNNAAN 8-mers

Request: // same read-out, input: ATGCAAAT
Result: 5.41 % of ANNNNAAN 8-mers

Request: Repeat for the following sequence: ATTTAAAT
Result: 2.38 % of ANNNNAAN 8-mers

Request: Next record, please: ATCATAAC
Result: 0.0374 % of ANNNNAAN 8-mers

Request: Subsequent entry: AGCTCAAA
Result: 0.0213 % of ANNNNAAN 8-mers

Request: How about ATGAGAAA ?
Result: 0.0765 % of ANNNNAAN 8-mers

Request: // next record AGCCAAAT
Result: 0.0702 % of ANNNNAAN 8-mers

Request: Can you check ACCCAAAT next?
Result: 0.0391 % of ANNNNAAN 8-mers

Request: Now the same for ATCATAAT
Result: 0.164 % of ANNNNAAN 8-mers

Request: Then this sequence: ATGAAAAA
Result: 0.123 % of ANNNNAAN 8-mers

----------
For each entry below, report its binding signal value.
Target: POU2 (OCT2 POU domain);BOB1 (OBF1, OCA-B) (human;human, UniProt P09086;Q16633 175-386;1-256, |)
Sequence 1: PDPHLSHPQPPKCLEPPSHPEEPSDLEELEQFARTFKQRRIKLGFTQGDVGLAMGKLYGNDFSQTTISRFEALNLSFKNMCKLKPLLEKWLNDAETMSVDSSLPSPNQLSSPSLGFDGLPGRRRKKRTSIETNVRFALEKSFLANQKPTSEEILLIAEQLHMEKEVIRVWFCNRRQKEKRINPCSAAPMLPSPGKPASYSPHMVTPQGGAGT
Sequence 2: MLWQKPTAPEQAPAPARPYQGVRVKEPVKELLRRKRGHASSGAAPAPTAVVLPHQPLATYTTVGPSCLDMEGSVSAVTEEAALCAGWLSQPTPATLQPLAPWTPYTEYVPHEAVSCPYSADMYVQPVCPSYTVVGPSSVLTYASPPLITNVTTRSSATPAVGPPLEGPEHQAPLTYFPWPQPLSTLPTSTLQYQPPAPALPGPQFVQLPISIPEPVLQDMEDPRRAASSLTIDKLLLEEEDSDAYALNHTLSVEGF
Assay: EMSA-SELEX-seq; with BOB1 (ternary complex band); 20 mM Tris-HCl pH 7.6, 140 mM NaCl, 10% glycerol, 0.5 mM EDTA, 0.05% Triton X-100, 0.1 mg/mL BSA, 0.1 mg/mL poly(dI-dC), 5 mM DTT, room temperature, 20 min; high values mean tight binding
Conditions: protein: recombinant;recombinant; copies: 1;1; dsDNA, one strand shown

Request: Entry under review: AACGAAAC . Reported binding signal?
Result: 0.0157 % of ANNNNAAN 8-mers

Request: Likewise for AAGAAAAT ?
Result: 0.0958 % of ANNNNAAN 8-mers

Request: Try this sequence too: ATTGCAAA
Result: 0.324 % of ANNNNAAN 8-mers

Request: Note, next up: AGGGTAAC
Result: 0.0322 % of ANNNNAAN 8-mers

Request: Item: ACTCCAAA
Result: 0.0149 % of ANNNNAAN 8-mers

Request: Now give it for ATAGTAAG too.
Result: 0.0619 % of ANNNNAAN 8-mers

Request: Same again, this time with AGAATAAC
Result: 0.0487 % of ANNNNAAN 8-mers

Request: What do you have for AGCTCAAG ?
Result: 0.0206 % of ANNNNAAN 8-mers

Request: Now give it for ATGATAAA too.
Result: 0.0619 % of ANNNNAAN 8-mers

Request: Note, next up: AGACGAAC
Result: 0.0182 % of ANNNNAAN 8-mers

Request: One more sequence: ATCTCAAA
Result: 0.038 % of ANNNNAAN 8-mers

----------
target: POU1 (OCT1 POU domain) (human, UniProt P14859 260-458); assay: EMSA-SELEX-seq; no BOB1; 20 mM Tris-HCl pH 7.6, 140 mM NaCl, 10% glycerol, 0.5 mM EDTA, 0.05% Triton X-100, 0.1 mg/mL BSA, 0.1 mg/mL poly(dI-dC), 5 mM DTT, room temperature, 20 min; high values mean tight binding; settings: protein: recombinant; dsDNA, one strand shown
Sequence (P14859 260-458): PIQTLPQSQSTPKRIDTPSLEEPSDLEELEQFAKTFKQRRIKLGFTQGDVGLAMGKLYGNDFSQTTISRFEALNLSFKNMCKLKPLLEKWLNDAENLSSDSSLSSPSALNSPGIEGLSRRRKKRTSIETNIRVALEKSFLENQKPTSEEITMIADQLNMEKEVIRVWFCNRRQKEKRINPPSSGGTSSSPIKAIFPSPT
ASSAY_METRIC: binding signal

Request: Entry AAACAAAT has what binding signal?
Result: 0.352 % of ANNNNAAN 8-mers

Request: Here is the next sequence: AGATTAAC
Result: 0.0885 % of ANNNNAAN 8-mers

Request: Cool, now AACCTAAC
Result: 0.013 % of ANNNNAAN 8-mers

Request: Also ACTTTAAA ?
Result: 0.0713 % of ANNNNAAN 8-mers

Request: Same for ACCCTAAT
Result: 0.037 % of ANNNNAAN 8-mers

Request: Cool, now ATGAGAAC
Result: 0.0404 % of ANNNNAAN 8-mers

Request: Input ATTAGAAC
Result: 0.0427 % of ANNNNAAN 8-mers

Request: Same question for ACTGGAAA please.
Result: 0.0362 % of ANNNNAAN 8-mers

Request: Try this sequence next: AATCTAAG
Result: 0.0553 % of ANNNNAAN 8-mers

Request: Please do the same for ATTACAAC as well.
Result: 0.0313 % of ANNNNAAN 8-mers

Request: AGCACAAC
Result: 0.0114 % of ANNNNAAN 8-mers

Request: And then AATGGAAC , what is it?
Result: 0.0439 % of ANNNNAAN 8-mers

Request: Same question, AGGGAAAT this time
Result: 0.549 % of ANNNNAAN 8-mers

Request: Now the sequence ACTGCAAG
Result: 0.0133 % of ANNNNAAN 8-mers

Request: Input AGGCAAAG
Result: 0.146 % of ANNNNAAN 8-mers

Request: Same for AGGCAAAC
Result: 0.0866 % of ANNNNAAN 8-mers

Request: Lookup ACAATAAA
Result: 0.0481 % of ANNNNAAN 8-mers

Request: Please do the same for AACGTAAT as well.
Result: 0.077 % of ANNNNAAN 8-mers

Request: Another sequence: ACGACAAT
Result: 0.029 % of ANNNNAAN 8-mers

Request: Next sequence up: AGGGCAAC
Result: 0.0214 % of ANNNNAAN 8-mers

Request: Would you kindly repeat that for AACCCAAG ?
Result: 0.0111 % of ANNNNAAN 8-mers

Request: Thanks! And ATATAAAT ?
Result: 0.16 % of ANNNNAAN 8-mers

Request: And AAATCAAA ?
Result: 0.133 % of ANNNNAAN 8-mers

Request: Also, AAGTCAAC please.
Result: 0.0256 % of ANNNNAAN 8-mers

Request: Moving on to the next sequence: AGAATAAC
Result: 0.0534 % of ANNNNAAN 8-mers

Request: Another sequence to check: AACGAAAT
Result: 0.0744 % of ANNNNAAN 8-mers

Request: Then this sequence: ATCTGAAG
Result: 0.0297 % of ANNNNAAN 8-mers

Request: Likewise for ACTGCAAT ?
Result: 0.0301 % of ANNNNAAN 8-mers

Request: Ok, now ACCCCAAT
Result: 0.0145 % of ANNNNAAN 8-mers

Request: Same question for ATCGCAAG please.
Result: 0.0179 % of ANNNNAAN 8-mers

Request: Please answer likewise for ACTAAAAC
Result: 0.0233 % of ANNNNAAN 8-mers

Request: Similarly, ACATTAAT ?
Result: 0.165 % of ANNNNAAN 8-mers

Request: # iterate: AGCCTAAT
Result: 0.0503 % of ANNNNAAN 8-mers

Request: Try the sequence ATTGCAAC
Result: 0.0256 % of ANNNNAAN 8-mers

Request: Entry to check: ATCGTAAT
Result: 0.085 % of ANNNNAAN 8-mers

Request: Lookup AATCTAAA
Result: 0.107 % of ANNNNAAN 8-mers

Request: Next sequence: ATCTCAAA
Result: 0.0435 % of ANNNNAAN 8-mers

Request: Note, next up: AGAAGAAC
Result: 0.0191 % of ANNNNAAN 8-mers

Request: Moving on to AATGCAAT
Result: 0.0862 % of ANNNNAAN 8-mers

Request: What about AATAAAAT ?
Result: 0.214 % of ANNNNAAN 8-mers

Request: Input AGAACAAT
Result: 0.0378 % of ANNNNAAN 8-mers

Request: Same again, this time with ATGCCAAT
Result: 0.0648 % of ANNNNAAN 8-mers

Request: Another: ACCCTAAA
Result: 0.0137 % of ANNNNAAN 8-mers

Request: Can you handle AAGTGAAT next?
Result: 0.105 % of ANNNNAAN 8-mers

Request: Lookup AACCGAAG
Result: 0.0172 % of ANNNNAAN 8-mers

Request: Would you kindly repeat that for ACTTAAAA ?
Result: 0.0587 % of ANNNNAAN 8-mers
